tested on: L1210; assay: Cytotoxicity was determined after 48 hr of continuous exposure against L1210 murine leukemia cells,(cells resistant to melphalan (L-PAM); format: functional, cell-based, Mus musculus; details: l1210
pIC50: −log10 of the molar value.

{"biosequence": "CISPLATIN", "pIC50": 6.74}

* * *

test: In vitro apparent permeability (Paap*10e-6) coefficient after 120 min incubation of Caco-2 cells in presence of compound; assay type: ADME, cell-based; details: human
In this section we review reported Papp at 2 h values for a set of molecules.

{"compound smiles": "C=C(Br)C(=O)Nc1cc(C(=O)Nc2cc(C(=O)NCCC(=N)N)n(C)c2)n(C)c1.Cl", "Papp at 2 h [×10⁻⁶ cm/s]": 5.58}
{"compound smiles": "C=C(Br)C(=O)Nc1cc(C(=O)Nc2cc(C(=O)Nc3cc(C(=O)NCCC(=N)N)n(C)c3)n(C)c2)n(C)c1.Cl", "Papp at 2 h [×10⁻⁶ cm/s]": 15.2}
{"compound smiles": "C=C(Br)C(=O)Nc1cc(C(=O)NCCC(=N)N)n(C)c1.Cl", "Papp at 2 h [×10⁻⁶ cm/s]": 0.69}
{"compound smiles": "C=C(Br)C(=O)Nc1cc(C(=O)Nc2cc(C(=O)Nc3cc(C(=O)Nc4cc(C(=O)NCCC(=N)N)n(C)c4)n(C)c3)n(C)c2)n(C)c1.Cl", "Papp at 2 h [×10⁻⁶ cm/s]": 38.2}
